# assay.method.text: protein stability index of a GFP-peptide fusion (yeast GPS) (PSI 1-4); higher = more stable; sorted into four equal gates, so the index is relative within each strain
# details: pdr5∆
measurement.kind: protein stability index

> print(dat)
                     entry.sequence  measured.number
1  NQPHQSQTPSFNTNSSF [YOR098C/NUP1]             2.99
2          INYLLTLAITTVTNSKF [RPN2]             2.91
3          SSSTQNVFVILMDKCLP [DIS3]             1.96
4          NHLDELQKKFVTKQSEL [SMC1]             3.06
5         VQHDQILVMETSEEQTK [SWP82]             2.91
6         AVSEKAGHQTSAESWGT [RPL4A]             2.03

====

The entries below are paired with their reported protein stability index.
# assay.method.text: protein stability index of a GFP-peptide fusion (yeast GPS) (PSI 1-4); higher = more stable; sorted into four equal gates, so the index is relative within each strain
# details: pdr5∆
measurement.kind: protein stability index

> print(dat)
                        entry.sequence         measurement.kind  measured.number
 1           QIILAYIKYNILLTSIS [SRP68]  protein stability index             1.25
 2            KRQELEEASQQQQLQQN [MED2]  protein stability index             2.65
 3           AAPSAADIKAVVESVGA [RPP2B]  protein stability index             3.06
 4            EREIKRRKFDPSSSENV [UBP6]  protein stability index             3.37
 5            SRSTDNFHNSKKRMNSN [RRI1]  protein stability index              2.4
 6            KINPFGFEQVKIALGSP [RRI2]  protein stability index             2.91
 7          MKVKADRDESSPYAAML [RPS14A]  protein stability index             3.29
 8            NLLESITKLLEINLSKI [YCS4]  protein stability index             2.55
 9            GNAPATPSSDQNPLPTR [SOH1]  protein stability index             2.98
10            FISYHDKYLCMLKTCVF [NUT1]  protein stability index             2.95
11            DDSSSDNDSLTDLESLS [SIR4]  protein stability index             3.28
12            GCGTVKRFNIGADPNYR [RPR2]  protein stability index             3.36
13            ISPLMKSQYNMVLRNVM [SRB8]  protein stability index             2.12
14            AFVSVYSKNNPNLLFSM [PRP8]  protein stability index             2.74
15           KNNLLIPDLSIQNDIYL [RPN12]  protein stability index             3.02
16           QTKEIKTERVEDQKVVD [RPL6B]  protein stability index             3.33
17            LNSFVNDIFERIATEAS [HTB1]  protein stability index             2.89
18            VSNRVAAPARAGAVAPE [RPP0]  protein stability index             2.54
19            KLTVCFDDILKVGAEMM [MED2]  protein stability index             1.95
20            KTKILEVAIRDVNLDVR [IRR1]  protein stability index             2.12
21            MSAKAEKKPASKAPAEK [HTB1]  protein stability index             3.41
22            DVIHFEDSSILQSIVNE [PCI8]  protein stability index             3.06
23            KTLIGLQGIVIWDSQKF [POP4]  protein stability index             1.91
24            GQEYPRIIGLSATLPNY [BRR2]  protein stability index              2.2
25           VKKVQLGKKGVPYVVTH [RPS4A]  protein stability index             2.07
26            DDDERVEYNLFTNRSTM [BRN1]  protein stability index              3.2
27            DSSSVSEDSAVFKATSS [FAS1]  protein stability index             3.32
28            ELNYFVGCKNLERLTLV [GRR1]  protein stability index             2.83
29            KYKSNTNNMEKIIEDLR [SMC2]  protein stability index             3.23
30            VTLKGAKALESLASCLR [POP1]  protein stability index             2.94
31            IAINFTVNHSEKFPNDV [RPP1]  protein stability index             2.87
32           DEADKMIDLGFEDQVTN [PRP28]  protein stability index             3.34
33    NAGTEKEKESKKDSKPA [YLR335W/NUP2]  protein stability index             3.15
34            SPLQKEEALNFDISMAD [SSN2]  protein stability index             3.07
35            SFLFSAIPLQQVLSQSA [SWI1]  protein stability index             1.43
36  VSITDAPKIHILDPSTE [YMR129W/POM152]  protein stability index             1.95
37            LWLKKVMEEEEQDCKCI [POP8]  protein stability index              2.7
38          VSNSISRLGEENLPGLS [SNU114]  protein stability index             1.27
39            ATVVSTNHSAAASTPTT [PGD1]  protein stability index             3.12
40           SQLNIQLSQDEHSQVEQ [SRP72]  protein stability index             3.07
41            CAMSGLTADARSMIEHA [PUP2]  protein stability index             2.94
42            EESIKIYPLIKPGSTVM [UBP6]  protein stability index             3.01
43            PSQSEEQKGQMAKKEGT [MED4]  protein stability index                3
44    SRLKALNLQFKAKVDDL [YLR335W/NUP2]  protein stability index              3.2

====

# assay.method.text: protein stability index of a GFP-peptide fusion (yeast GPS) (PSI 1-4); higher = more stable; sorted into four equal gates, so the index is relative within each strain
# details: doa10∆
The entries below are paired with their reported protein stability index.
measurement.kind: protein stability index

> print(dat)
                      entry.sequence         measurement.kind  measured.number
 1          LGLCCLLDVKLAIDNMY [YCG1]  protein stability index             1.52
 2          RGIPRLSEDELRELDVE [SMC4]  protein stability index             3.44
 3        MKQLKFFKPLDYITEAV [SNU114]  protein stability index             2.12
 4          ILRMGAFRTIESKSDDN [RRI1]  protein stability index             2.88
 5          QDRLSDLIHKSEAFPSL [SMC4]  protein stability index             3.31
 6          MTPLLVNCLELLINTNF [PCI8]  protein stability index              1.6
 7          SSEYETINISLSFSWAI [NUT1]  protein stability index             1.51
 8  FNLISNAGTEKEKESKK [YLR335W/NUP2]  protein stability index             3.41
 9          EYQSLMSLKDKLLIQID [SMC1]  protein stability index             2.13
10          IGGRRFSEGTSADREIQ [RPT4]  protein stability index             2.51
11         NKSRSSGHFSTDSRTGQ [CDC53]  protein stability index             3.03
12          DENPDLLGYTGIPTDKG [PRE8]  protein stability index             1.99
13          KSHVLLATPVQFELLSR [BRR2]  protein stability index             2.31
14        MENDKGQLVELYVPRKC [RPS21A]  protein stability index             3.17

Values were extracted from the supplement of paper PMC9732359.
